- TARGET OF ASSAY: D(1A) dopamine receptor (Sus scrofa)
- Sequence (P50130 whole entry): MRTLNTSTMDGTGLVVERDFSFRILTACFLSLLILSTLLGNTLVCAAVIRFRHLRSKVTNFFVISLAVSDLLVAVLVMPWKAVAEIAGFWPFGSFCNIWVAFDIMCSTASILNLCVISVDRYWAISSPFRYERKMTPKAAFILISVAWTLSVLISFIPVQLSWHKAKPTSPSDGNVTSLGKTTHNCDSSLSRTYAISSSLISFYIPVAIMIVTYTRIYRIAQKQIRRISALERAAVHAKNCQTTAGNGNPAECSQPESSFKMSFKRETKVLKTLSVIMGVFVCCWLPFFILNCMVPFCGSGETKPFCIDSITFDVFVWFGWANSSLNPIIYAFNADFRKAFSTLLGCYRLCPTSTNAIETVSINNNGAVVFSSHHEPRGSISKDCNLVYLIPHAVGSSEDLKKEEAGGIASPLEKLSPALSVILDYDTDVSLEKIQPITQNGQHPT
- EXPERIMENTAL PROTOCOL: Displacement of [3H]SCH23390 from D1 receptor in pig striatal membrane
pKi: −log10 of the molar value.
VALUE TYPE: pKi

Example results:
COMPOUND	pKi
CCCN(CCC)CCCCNC(=O)c1ccc(-c2ccccc2)cc1	5.17
CCCNCCCCNC(=O)c1ccc(-c2ccccc2)cc1	5.14

I = CCCN(CCCCn1cc(-c2ccc(-c3ccccc3)cc2)nn1)C1CC=C(C#C[Si](C)(C)C)CC1 (stereo not given)
II = CCCN(CCCCn1cc(-c2ccc(-c3ccccc3)cc2)nn1)C1CC=C(C#Cc2ccccc2)CC1 (stereo not given)
Please state the entry with greater pKi among I and II . Pick one and reply with its label.
II

* * *

- TARGET OF ASSAY: UniProt:P35462
# EC50 annotations
Lab book: enter the figure in nM, no units written.

COMPOUND	MEASURED RESULT
C#CC1=CCC(N(CCC)CCCCn2cc(-c3ccc(-c4ccccc4)cc3)nn2)CC1 (configuration not stated)	3.1

May I ask what EC50 has been recorded for C#CC1=CCC(N(CCC)CCC)CC1 (configuration not stated) ?
7.7

* * *

# Ki annotations
- TARGET OF ASSAY: D(3) dopamine receptor (Homo sapiens, UniProt P35462)
- Sequence (P35462 whole entry): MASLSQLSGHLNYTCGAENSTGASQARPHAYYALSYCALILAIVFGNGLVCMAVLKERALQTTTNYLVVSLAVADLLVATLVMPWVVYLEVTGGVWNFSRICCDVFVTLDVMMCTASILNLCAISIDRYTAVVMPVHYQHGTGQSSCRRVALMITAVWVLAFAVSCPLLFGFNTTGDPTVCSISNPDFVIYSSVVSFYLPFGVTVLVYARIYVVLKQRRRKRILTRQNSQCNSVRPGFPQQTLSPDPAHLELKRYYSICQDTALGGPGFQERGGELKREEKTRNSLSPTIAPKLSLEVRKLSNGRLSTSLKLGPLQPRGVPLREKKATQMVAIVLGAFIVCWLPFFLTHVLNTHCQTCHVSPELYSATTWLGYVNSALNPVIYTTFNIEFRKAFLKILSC
- EXPERIMENTAL PROTOCOL: biochemical
- Description: Displacement of [3H]spiperone from human wild type D3 receptor expressed in human HEK293 cells
Lab book: enter the figure in nM, no units written.

COMPOUND	TARGET OF ASSAY	Ki / nM
C#CC1=CCC(N(CCC)CCCCn2cc(-c3ccc(-c4ccccc4)cc3)nn2)CC1 (configuration not stated)	D(3) dopamine receptor (Homo sapiens, UniProt P35462)	2.5

Lookup: Ki / D(3) dopamine receptor (Homo sapiens, UniProt P35462) / C#CC1=CCC(N(CCC)CCC)CC1 (configuration not stated)
190

* * *

- TARGET OF ASSAY: D(2) dopamine receptor (Homo sapiens)
- Sequence (P14416 whole entry): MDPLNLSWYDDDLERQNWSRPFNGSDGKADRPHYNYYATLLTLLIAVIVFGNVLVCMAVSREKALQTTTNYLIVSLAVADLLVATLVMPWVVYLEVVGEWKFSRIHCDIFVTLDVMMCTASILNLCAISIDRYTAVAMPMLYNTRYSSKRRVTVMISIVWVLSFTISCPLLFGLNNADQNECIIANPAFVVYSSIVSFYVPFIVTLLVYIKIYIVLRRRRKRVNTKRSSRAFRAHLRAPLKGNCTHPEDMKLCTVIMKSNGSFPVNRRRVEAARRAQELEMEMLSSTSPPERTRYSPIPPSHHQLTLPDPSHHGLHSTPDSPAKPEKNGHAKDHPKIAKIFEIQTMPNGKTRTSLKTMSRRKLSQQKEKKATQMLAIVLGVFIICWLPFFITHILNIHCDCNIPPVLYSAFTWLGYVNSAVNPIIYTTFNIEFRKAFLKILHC
- EXPERIMENTAL PROTOCOL: Displacement of [3H]spiperone from human D2short receptor expressed in CHO cells
- Assay type: cell-based
VALUE TYPE: Ki (nM)

COMPOUND	TARGET OF ASSAY	Ki (nM)
C#CC1=CCC(N(CCC)CCCCn2cc(-c3ccc(-c4ccccc4)cc3)nn2)CC1 (centres undefined)	D(2) dopamine receptor (Homo sapiens)	170

A = CCCN(CCCCn1cc(-c2ccc(-c3ccccc3)cc2)nn1)C1CC=C(C#C[Si](C)(C)C)CC1 (centres undefined)
B = CCCN(CCCCn1cc(-c2ccc(-c3ccccc3)cc2)nn1)C1CC=C(C#Cc2ccccc2)CC1 (centres undefined)
Please state the entry with greater Ki among A and B . Pick one and reply with its label.
A
(A: 670 nM, B: 180 nM)

* * *

- EXPERIMENTAL PROTOCOL: Displacement of [3H]ketanserin from 5HT2 receptor in pig cerebral cortex homogenate
pKi: −log10 of the molar value.
VALUE TYPE: pKi

Example results:
MOLECULE	pKi
CCCN(CCCCn1cc(-c2ccc(-c3ccccc3)cc2)nn1)C1CC=C(C#C[Si](C)(C)C)CC1 (stereo not given)	5.08
C#CC1=CCC(N(CCC)CCCCNC(=O)c2ccc(-c3ccccc3)cc2)CC1 (stereo not given)	6.34
C#CC1=CCC(N(CCC)CCCCn2cc(-c3ccc(-c4ccccc4)cc3)nn2)CC1 (stereo not given)	5.57

1 = CCCN(CCCCNC(=O)c1ccc(-c2ccccc2)cc1)C1CC=C(C#C[Si](C)(C)C)CC1 (stereo not given)
2 = CC#CC1=CCC(N(CCC)CCCCn2cc(C)nn2)CC1 (stereo not given)
Just tell me: smaller pKi value, 1 or 2 ? Pick one and reply with its label.
2
(2: 4.82, 1: 5.85)
